Assay: Biodistribution in Daudi xenograft bearing mice
Assay type: in vivo, mouse
Details: female, CB-17 SCID, mouse, kidney, iv, with AMD3100, 50 µg per animal, coinjected (CXCR4 competition), total radioactivity, 1h p.i., coinjection of 50 µg AMD3100/animal; n=1; read-out: Biodistribution kidney, + AMD3100
Where a SMILES comes first, the peptide text is derived from it. Side-chain parts run from the residue outwards. [ ]: non-standard residue; d: D form. The star is where a group is joined. DOTA = O=C(O)CN1CCN(CC(=O)O)CCN(CC(=O)*)CCN(CC(=O)O)CC1; 2Nal = N[C@@H](Cc1ccc2ccccc2c1)C(=O)O; dNMeOrn = CN[C@H](CCCN)C(=O)O; 4Abz = Nc1ccc(C(=O)O)cc1
Endpoint Name: tissue uptake at 1 h (%ID/g)
One number for each entry, in %ID/g.

Query C[C@@H](NC(=O)[C@@H](CCCNC(=N)N)NC(=O)CN1CCN(CC(=O)O)CCN(CC(=O)O)CCN(CC(=O)O)CC1)C(=O)Nc1ccc(C(=O)NCCC[C@@H]2C(=O)N[C@@H](CCCNC(=N)N)C(=O)N[C@@H](Cc3ccc4ccccc4c3)C(=O)NCC(=O)N[C@H](Cc3ccc(O)cc3)C(=O)N2C)cc1 [[^177Lu]DOTA-r-a-ABA-CPCR4, metal not drawn] (cyclo([2Nal]G[dY][dNMeOrn]([4Abz-dA-dR-DOTA])R)) yields tissue uptake at 1 h of 10.3

###

Test: Biodistribution in Daudi xenograft bearing mice
Type: in vivo, mouse
Settings: female, CB-17 SCID, mouse, tumor (Daudi xenograft), iv, total radioactivity, 1h p.i., tracer only, i.v.; γ-counter; means ± SD, n=4-5 (68Ga: n=4); read-out: Biodistribution tumor (Daudi xenograft)
Where a SMILES comes first, the peptide text is derived from it. Side-chain parts run from the residue outwards. [ ]: non-standard residue; d: D form. The star is where a group is joined. DOTA = O=C(O)CN1CCN(CC(=O)O)CCN(CC(=O)*)CCN(CC(=O)O)CC1; 2Nal = N[C@@H](Cc1ccc2ccccc2c1)C(=O)O; dNMeOrn = CN[C@H](CCCN)C(=O)O; 4Abz = Nc1ccc(C(=O)O)cc1
Endpoint Name: tissue uptake at 1 h (%ID/g)
Numbers only, in %ID/g.

Query C[C@@H](NC(=O)[C@@H](CCCNC(=N)N)NC(=O)CN1CCN(CC(=O)O)CCN(CC(=O)O)CCN(CC(=O)O)CC1)C(=O)Nc1ccc(C(=O)NCCC[C@@H]2C(=O)N[C@@H](CCCNC(=N)N)C(=O)N[C@@H](Cc3ccc4ccccc4c3)C(=O)NCC(=O)N[C@H](Cc3ccc(O)cc3)C(=O)N2C)cc1 [[^68Ga]DOTA-r-a-ABA-CPCR4, metal not drawn] (cyclo([2Nal]G[dY][dNMeOrn]([4Abz-dA-dR-DOTA])R)) yields tissue uptake at 1 h of 11.7

###

Experiment: Biodistribution in Daudi xenograft bearing mice
Type: in vivo, mouse
Conditions: female, CB-17 SCID, mouse, femur, iv, with AMD3100, 50 µg per animal, coinjected (CXCR4 competition), total radioactivity, 1h p.i., coinjection of 50 µg AMD3100/animal; means ± SD, n=3; read-out: Biodistribution femur, competition with AMD3100
Where a SMILES comes first, the peptide text is derived from it. Side-chain parts run from the residue outwards. [ ]: non-standard residue; d: D form. The star is where a group is joined. DOTA = O=C(O)CN1CCN(CC(=O)O)CCN(CC(=O)*)CCN(CC(=O)O)CC1; 2Nal = N[C@@H](Cc1ccc2ccccc2c1)C(=O)O; dNMeOrn = CN[C@H](CCCN)C(=O)O; 4Abz = Nc1ccc(C(=O)O)cc1
Endpoint Name: tissue uptake at 1 h (%ID/g)
One number for each entry, in %ID/g.

Query C[C@@H](NC(=O)[C@@H](CCCNC(=N)N)NC(=O)CN1CCN(CC(=O)O)CCN(CC(=O)O)CCN(CC(=O)O)CC1)C(=O)Nc1ccc(C(=O)NCCC[C@@H]2C(=O)N[C@@H](CCCNC(=N)N)C(=O)N[C@@H](Cc3ccc4ccccc4c3)C(=O)NCC(=O)N[C@H](Cc3ccc(O)cc3)C(=O)N2C)cc1 [[^68Ga]DOTA-r-a-ABA-CPCR4, metal not drawn] (cyclo([2Nal]G[dY][dNMeOrn]([4Abz-dA-dR-DOTA])R)) yields tissue uptake at 1 h of 0.74
